- Tested on: Plasmodium berghei
- procedure_summary: Luciferase/luciferin-expressing antifolate-resistant parasites were used to infect a culture of HepG2 cells that were pre-incubated with compounds. Infected hepatocytes emit light due to the luciferase reaction. Assay results are presented as the percent inhibition of light emission compared to control. […]
- Assay type: functional
- measurement_parameters: sporozoite, FFLUC_HILL_SLOPE 3, FFLUC_R_SQUARED 0.639, PBLUC_HILL_SLOPE 0.845, PBLUC_R_SQUARED 0.14, read-out: LUCIFERASE INFECTION ASSAY - IC50
pIC50: −log10 of the molar value.
property_measured: pIC50

What does the record list as pIC50 for CC(C)(C)c1ccc(OC(=O)Nc2ccc(Cl)c(Cl)c2)c(C(C)(C)C)c1 ?
< 5.08

* * *

- Test system: Plasmodium berghei
- procedure_summary: Luciferase/luciferin-expressing antifolate-resistant parasites were used to infect a culture of HepG2 cells that were pre-incubated with compounds. Infected hepatocytes emit light due to the luciferase reaction. Assay results are presented as the percent inhibition of light emission compared to control. […]
- Type: functional
- measurement_parameters: sporozoite, read-out: LUCIFERASE INFECTION ASSAY - IC90
Hi! Could you tag entries with IC90 below 5 µM as Condition met, and those at or above as Condition not met? Much appreciated.

Would you please look over these solved cases?
{"columns": ["compound", "test_target", "class_label"],
 "data": [
  ["O=C(NCc1ccccc1CN1CCOCC1)c1cccc(C(F)(F)F)c1", "Plasmodium berghei", "Condition not met"],
  ["NC(=O)c1cc(NC(=O)c2cccs2)ccc1N1CCCCC1", "Plasmodium berghei", "Condition met"],
  ["CCCNC(=O)c1c(NC(=O)c2cccc(OC)c2)nc2ccc(C)cn12", "Plasmodium berghei", "Condition not met"]
]}

Please check: IC90 for c1cc2c(cc1C1=NNC(=NC3CC3)SC1)CCCC2 , strictly under 5 µM or not?
Condition met

Please check: IC90 for O=C(O)c1ccc(N=C2C=C(NS(=O)(=O)c3ccc(Cl)cc3)c3ccccc3C2=O)cc1 , strictly under 5 µM or not?
Condition not met

Please check: IC90 for Fc1ccc(Nc2n[nH]c(=S)s2)cc1 , strictly under 5 µM or not?
Condition not met

Please check: IC90 for CC1N(C)c2ccc(/C=C/c3nc4ccccc4s3)cc2C1(C)C (stereo unspecified) , strictly under 5 µM or not?
Condition met

Please check: IC90 for Cc1nc2ccccc2nc1SCC(=O)NC1CCCC(C)C1C (stereo unspecified) , strictly under 5 µM or not?
Condition not met

Please check: IC90 for CN(C)c1ccc(C(=O)N2CCc3nc(NCc4cccc(Oc5ccccc5)c4)ncc3C2)cc1 , strictly under 5 µM or not?
Condition not met

Please check: IC90 for CC(=O)Nc1cccc(/C(C)=N/n2c(-c3cccc(Br)c3)cs/c2=N\c2ccc(F)cc2)c1 , strictly under 5 µM or not?
Condition met

Please check: IC90 for Cc1ccc(C(C)(C)CC(C)NCc2ccc(Cl)cc2)o1 (stereo unspecified) , strictly under 5 µM or not?
Condition not met

* * *

- Test system: Plasmodium berghei
- procedure_summary: Luciferase/luciferin-expressing antifolate-resistant parasites were used to infect a culture of HepG2 cells that were pre-incubated with compounds. Infected hepatocytes emit light due to the luciferase reaction. Assay results are presented as the percent inhibition of light emission compared to control. […]
- Type: functional
- measurement_parameters: sporozoite, HEPG2TOX_HILL_SLOPE 12.8, HEPG2TOX_R_SQUARED 0.861, read-out: LUCIFERASE INFECTION ASSAY - IC50
pIC50: −log10 of the molar value.
property_measured: pIC50

What does the record list as pIC50 for Cc1cc(C(=O)C(C)OC(=O)CCn2cnc3c(cnn3C)c2=O)c(C)n1-c1ccc(Cl)cc1 (stereo unspecified) ?
< 5.00
